Test system: HIV
protocol: MT4 assay: antiviral HIV activity (cell protection, cell titer glo readout at 96 hours)
Format: cell-based
protocol.conditions: Human immunodeficiency virus 1, MT4, 96 h, MT4 cells, cell titer glo readout at 96 hours, 10 point dose response; read-out: HIV MT4 Assay IC50
test.readout: IC50 (nM)

# compound, measure.unit, numeric.result
records = [
    ("Cc1nc2c(cc(-c3ccnc(-c4ccc5nn(C6COC6)cc5c4)c3)n2C)c(-c2cc(F)c3c(c2C)CCCO3)c1[C@H](OC(C)(C)C)C(=O)O", "nM", 2.8),
    ("Cc1nc2c(cc(C(=O)N3CCC(F)(F)CC3)n2C)c(-c2cc(F)c3c(c2C)CCCO3)c1[C@H](OC(C)(C)C)C(=O)O", "nM", 42),
    ("Cc1nc2c(cc(-c3nc(N4CCC(N5CCN(C)CC5)CC4)ns3)n2C)c(-c2cc(F)c3c(c2C)CCCO3)c1[C@H](OC(C)(C)C)C(=O)O", "nM", 5.6),
    ("Cc1nc2c(cc(C(=O)NCc3cccc(Cl)c3)n2C)c(-c2cc(F)c3c(c2C)CCCO3)c1[C@H](OC(C)(C)C)C(=O)O", "nM", 3.8),
    ("Cc1nc2c(cc(-c3nnc(CN4CCCCC4)o3)n2C)c(-c2cc(F)c3c(c2C)CCCO3)c1[C@H](OC(C)(C)C)C(=O)O", "nM", 8.4),
]

[a] Cc1nc2c(cc(C(=O)N3CCN(C4CCOCC4)CC3)n2C)c(-c2cc(F)c3c(c2C)CCCO3)c1[C@H](OC(C)(C)C)C(=O)O
[b] Cc1nc2c(cc(-c3ccnc(-c4cnc5c(cnn5C)c4)c3)n2C)c(-c2cc(F)c3c(c2C)CCCO3)c1[C@H](OC(C)(C)C)C(=O)O (atropisomer, axis not shown)
Among a and b , whose measured IC50 is the smaller figure? // respond with label for picked entry
b

[a] Cc1nc2c(cc(-c3nnc(N4CCN(C5CCOCC5)[C@@H](C)C4)o3)n2C)c(-c2cc(F)c3c(c2C)CCCO3)c1[C@H](OC(C)(C)C)C(=O)O
[b] Cc1nc2c(cc(-c3ccnc(N4CCCN(C(=O)C5CC5)CC4)c3)n2C)c(-c2cc(F)c3c(c2C)CCCO3)c1[C@H](OC(C)(C)C)C(=O)O (atropisomer, axis not shown)
[c] Cc1nc2c(cc(-c3ccnc(-c4ccc5c(c4)CCN5C)c3)n2C)c(-c2cc(F)c3c(c2C)CCCO3)c1[C@H](OC(C)(C)C)C(=O)O (atropisomer, axis not shown)
[d] Cc1nc2c(cc(C(=O)N3CCC(c4ccc(C(N)=O)cc4)CC3)n2C)c(-c2cc(F)c3c(c2C)CCCO3)c1[C@H](OC(C)(C)C)C(=O)O
List items by IC50 in falling order. Give the labels in the order specified.
d, b, a, c

====

System: HIV
protocol: MT4 assay: antiviral HIV activity (cell protection, cell titer glo readout at 96 hours)
Assay type: cell-based
protocol.conditions: Human immunodeficiency virus 1, MT4, 96 h, MT4 cells, cell titer glo readout at 96 hours, 10 point dose response; read-out: HIV MT4 Assay IC50
test.readout: IC50 (nM)

# compound, IC50 / nM
rows = [
    ("Cc1nc2c(cc(-c3ccnc(-c4cccc5cnn(C)c45)c3)n2C)c(-c2cc(F)c3c(c2C)CCCO3)c1[C@H](OC(C)(C)C)C(=O)O (atropisomer, axis not shown)", 16),
    ("Cc1ccc(-c2cc(-c3cc4c(-c5cc(F)c6c(c5C)CCCO6)c([C@H](OC(C)(C)C)C(=O)O)c(C)nc4n3C)ccn2)cc1 (atropisomer, axis not shown)", 11),
    ("Cc1nc2c(cc(-c3ccnc(N4CC5CN(C6COC6)CC5C4)c3)n2C)c(-c2cc(F)c3c(c2C)CCCO3)c1[C@H](OC(C)(C)C)C(=O)O (some centres unmarked)", 15),
    ("Cc1nc2c(cc(-c3nc(N4CCN(S(=O)(=O)N5CCCCC5)CC4)ns3)n2C)c(-c2cc(F)c3c(c2C)CCCO3)c1[C@H](OC(C)(C)C)C(=O)O", 16.4),
    ("COC1CCN(c2cc(-c3cc4c(-c5cc(F)c6c(c5C)CCCO6)c([C@H](OC(C)(C)C)C(=O)O)c(C)nc4n3C)ccn2)CC1 (atropisomer, axis not shown)", 13.2),
    ("Cc1nc2c(cc(-c3nc(N4CCCN(C)CC4)ns3)n2C)c(-c2cc(F)c3c(c2C)CCCO3)c1[C@H](OC(C)(C)C)C(=O)O", 13.6),
]

[1] Cc1nc2c(cc(-c3cncc(N4CCN(C5CCOCC5)CC4)c3)n2C)c(-c2cc(F)c3c(c2C)CCCO3)c1[C@H](OC(C)(C)C)C(=O)O
[2] Cc1nc2c(cc(-c3ccnc(-c4ccc5c(cnn5C)c4)c3)n2C)c(C2=CCC(C)(C)CC2)c1[C@H](OC(C)(C)C)C(=O)O
Higher IC50 between 1 and 2 ? // respond with label for picked entry
1
(1: 14.7 nM, 2: 5.9 nM)

====

System: HIV
protocol: MT4 assay: antiviral HIV activity (cell protection, cell titer glo readout at 96 hours)
Assay type: cell-based
protocol.conditions: Human immunodeficiency virus 1, MT4, 96 h, MT4 cells, cell titer glo readout at 96 hours, 10 point dose response; read-out: HIV MT4 Assay IC50
test.readout: IC50 (nM)

# structure.as.smiles, target.system, IC50 (nM)
records = [
    ("Cc1nc2c(cc(-c3ccnc(N4CCCN(C5COC5)CC4)c3)n2C)c(-c2cc(F)c3c(c2C)NCCO3)c1[C@H](OC(C)(C)C)C(=O)O", "HIV", 127),
    ("Cc1nc2c(cc(-c3nnc(N(C)CCN4CCCC4)o3)n2C)c(-c2cc(F)c3c(c2C)CCCO3)c1[C@H](OC(C)(C)C)C(=O)O", "HIV", 44.9),
    ("Cc1nc2c(cc(-c3nnc(N4CCC(N5CCCCC5)CC4)o3)n2C)c(-c2cc(F)c3c(c2C)CCCO3)c1[C@H](OC(C)(C)C)C(=O)O", "HIV", 118),
]

[I] Cc1nc2c(cc(C(=O)N3CCN(S(C)(=O)=O)CC3)n2C)c(-c2cc(F)c3c(c2C)CCCO3)c1[C@H](OC(C)(C)C)C(=O)O
[II] Cc1nc2c(cc(C(=O)NC[C@@H](C)c3ccccc3)n2C)c(-c2cc(F)c3c(c2C)CCCO3)c1[C@H](OC(C)(C)C)C(=O)O
[III] Cc1nc2c(cc(-c3nsc(N4CCCCC4)n3)n2C)c(-c2cc(F)c3c(c2C)CCCO3)c1[C@H](OC(C)(C)C)C(=O)O
Please list these in order of increasing IC50. Thank you! Give the labels in the order specified.
III, II, I

====

System: HIV
protocol: MT4 assay: antiviral HIV activity (cell protection, cell titer glo readout at 96 hours)
Type: cell-based
protocol.conditions: Human immunodeficiency virus 1, MT4, 96 h, MT4 cells, cell titer glo readout at 96 hours, 10 point dose response; read-out: HIV MT4 Assay IC50
pIC50: −log10 of the molar value.
test.readout: pIC50

# compound, target.system, pIC50
data = [
    ("Cc1nc2c(cc(C(=O)NCCC3CCCCC3)n2C)c(-c2cc(F)c3c(c2C)CCCO3)c1[C@H](OC(C)(C)C)C(=O)O [Example 259]", "HIV", 8.72),
]

[1] Cc1nc2c(cc(-c3ccnc(-c4ccc5c(c4)NCCO5)c3)n2C)c(-c2cc(F)c3c(c2C)CCCO3)c1[C@H](OC(C)(C)C)C(=O)O (atropisomer, axis not shown) [Example 50]
[2] Cc1nc2c(cc(-c3ccnc(-c4ccc5c(cnn5C)c4)c3)n2C)c(-c2cc(F)c3c(c2C)CCCO3)c1[C@H](OC(C)(C)C)C(=O)O (atropisomer, axis not shown) [Example 57]
[3] Cc1nc2c(cc(C(=O)N3CCN(C(=O)N(C)C)CC3)n2C)c(-c2cc(F)c3c(c2C)CCCO3)c1[C@H](OC(C)(C)C)C(=O)O [Example 220]
Please list these in order of increasing pIC50. Thank you! Give the labels in the order specified.
3, 1, 2
